Several publications report IC50 on UniProtKB P18031; those values are gathered here.
measured.property: IC50

>>> readout_value("COC(=O)N[C@@H](Cc1ccccc1)C(=O)N[C@@H](Cc1ccc(NS(=O)(=O)O)cc1)c1csc(-c2ccco2)n1")
"5000 nM"
>>> readout_value("CCc1csc([C@H](Cc2ccc(NS(=O)(=O)O)cc2)NC(=O)CNC(=O)OC(C)(C)C)n1")
"16000 nM"
>>> readout_value("O=C(O)/C=C/c1ccc(C(O)C(O)c2ccc(/C=C/C(=O)O)cc2)cc1 (stereo not drawn)")
"270 nM"
>>> readout_value("CN1CC2(C1)CN(c1cc(-c3ccc(O)c(N4CC(=O)NS4(=O)=O)c3F)[nH]n1)C2")
"≤ 1000 nM"
>>> readout_value("NC(=O)c1cc(OCCC(F)(F)F)c2sc(C(F)(F)P(=O)(O)O)c(Br)c2c1")
"400 nM"
>>> readout_value("N=C(N)N1CC=C(c2ccc(O)c(N3CC(=O)NS3(=O)=O)c2F)C1")
"≤ 1000 nM"
>>> readout_value("CN1CCCC(COc2ccc3cc(O)c(N4CC(=O)NS4(=O)=O)c(F)c3n2)C1 (stereo not drawn)")
"≤ 1000 nM"
>>> readout_value("Cn1c(=O)c(N2CCCC2)cc2cc(N3CC(=O)NS3(=O)=O)c(O)cc21")
"≤ 1000 nM"
>>> readout_value("COc1cccc(-c2csc([C@H](Cc3ccc(NS(=O)(=O)O)cc3)NC(=O)C(C)(C)C)n2)c1")
"40100 nM"
>>> readout_value("N#CCCNC(=O)c1ccc2sc(C(F)(F)P(=O)(O)O)c(Br)c2c1")
"5250 nM"
>>> readout_value("COc1cccc(Cc2csc([C@H](Cc3ccc(NS(=O)(=O)O)cc3)NC(=O)C(C)(C)C)n2)c1")
"50000 nM"
>>> readout_value("NC(=O)c1cc(OCc2ccc(Cl)c(Cl)c2)c2sc(C(F)(F)P(=O)(O)O)c(Br)c2c1")
"36.5 nM"
>>> readout_value("O=C1CN(c2c(O)ccc(-c3cc4ccccc4[nH]3)c2F)S(=O)(=O)N1")
"≤ 1000 nM"
>>> readout_value("CCc1ccc(C2COc3c(ccc4c3CCC(C)(C)O4)C2)c(O)c1 (stereo not drawn)")
"2900 nM"
>>> readout_value("Cc1c(C(F)(F)P(=O)(O)O)sc2c(OCCCS(C)(=O)=O)cc(C(N)=O)cc12")
"82.1 nM"
>>> readout_value("Cn1ccc(-c2cc(-c3ccc(O)c(N4CC(=O)NS4(=O)=O)c3F)[nH]n2)c1")
"≤ 1000 nM"
>>> readout_value("Cn1cnc(-c2ccc(O)c(N3CC(=O)NS3(=O)=O)c2F)n1")
"≤ 1000 nM"
>>> readout_value("O=C1CN(c2c(O)ccc(-c3cc(C#CC4CCCCC4)n[nH]3)c2F)S(=O)(=O)N1")
"≤ 1000 nM"
>>> readout_value("N#Cc1ccc(Cn2cc(-c3ccc(O)c(N4CC(=O)NS4(=O)=O)c3F)cn2)cc1F")
"≤ 1000 nM"
>>> readout_value("COC(=O)N[C@@H](Cc1ccccc1)C(=O)N[C@@H](Cc1ccc(NS(=O)(=O)O)cc1)c1nc(-c2ccsc2)cs1")
"900 nM"
>>> readout_value("CCc1csc([C@H](Cc2ccc(NS(=O)(=O)O)cc2)NC(=O)[C@@H](Cc2ccccc2)NC(=O)OC(C)(C)C)n1")
"7120 nM"
>>> readout_value("NC(=O)c1cc(OCCCOC(F)(F)F)c2sc(C(F)(F)P(=O)(O)O)c(Br)c2c1")
"110 nM"
>>> readout_value("NC(=O)c1cc(OCCCS(N)(=O)=O)c2sc(C(F)(F)P(=O)(O)O)c(C(F)(F)F)c2c1")
"18.2 nM"
>>> readout_value("CCc1csc([C@H](Cc2ccc(NS(=O)(=O)O)cc2)NC(=O)Cc2cccc(OC)c2)n1")
"4050 nM"
>>> readout_value("Cc1nn(C)cc1CNC(=O)c1ccc2sc(C(F)(F)P(=O)(O)O)c(Br)c2c1")
"6390 nM"
>>> readout_value("CCc1csc([C@H](Cc2ccc(NS(=O)(=O)O)cc2)NC(=O)CCc2ccc(OC)cc2)n1")
"16000 nM"
>>> readout_value("CN(C)c1cc(-c2ccc(O)c(N3CC(=O)NS3(=O)=O)c2F)[nH]n1")
"≤ 1000 nM"
>>> readout_value("Cn1ncc2cc(-c3ccc(O)c(N4CC(=O)NS4(=O)=O)c3F)cnc21")
"≤ 1000 nM"
>>> readout_value("O=C(O)/C=C/c1ccc(-c2nc(-c3c(F)c(F)c(F)c(F)c3F)[nH]c2-c2ccc(/C=C/C(=O)O)cc2)cc1")
"1200 nM"
>>> readout_value("O=C1CN(c2c(O)ccc(-c3cc(C4CCC4)n[nH]3)c2F)S(=O)(=O)N1")
"≤ 1000 nM"
>>> readout_value("O=C1CN(c2c(O)ccc(-c3cnn(C4CC4)c3)c2F)S(=O)(=O)N1")
"≤ 1000 nM"
>>> readout_value("CC#Cc1cc(-c2ccc(O)c(N3CC(=O)NS3(=O)=O)c2F)[nH]n1")
"≤ 1000 nM"
>>> readout_value("N#Cc1c(C(F)(F)P(=O)(O)O)sc2ccc(C(=O)NCc3c[nH]nn3)cc12")
"738 nM"

====

Several publications report log10(IC50) on Tyrosine-protein phosphatase non-receptor type 1 (Homo sapiens, UniProt P18031); those values are gathered here.
measured.property: log10(IC50) (log10 of the value in nM)

>>> readout_value("COc1ccc(C(=O)OC(c2ccc(/C=C/C(=O)O)cc2)C(O)c2ccc(/C=C/C(=O)O)cc2)cc1 (stereo not drawn)")
2.95
>>> readout_value("CNc1nc(N)nc2cc(-c3c(OC)cccc3OC)ccc12")
3.54
>>> readout_value("O=C(NCCn1nncc1-c1ccccc1)c1ccc2sc(C(F)(F)P(=O)(O)O)c(Br)c2c1")
3.41
>>> readout_value("O=C(NC1CCCOC1)c1ccc2sc(C(F)(F)P(=O)(O)O)c(Br)c2c1 (stereo not drawn)")
3.71
>>> readout_value("COCCCNC(=O)c1ccc2sc(C(F)(F)P(=O)(O)O)c(Br)c2c1")
3.72
>>> readout_value("O=C(NCc1c[nH]nn1)c1cc(F)c2sc(C(F)(F)P(=O)(O)O)c(Br)c2c1")
2.83
>>> readout_value("CCCCCOc1cc(C(N)=O)cc2c(Br)c(C(F)(F)P(=O)(O)O)sc12")
1.74
>>> readout_value("CCS(=O)(=O)c1ccccc1-c1ccc2c(NC)nc(N)nc2c1")
3.14
>>> readout_value("O=C(Nc1cccc(-c2cnco2)c1)c1ccc2sc(C(F)(F)P(=O)(O)O)c(Br)c2c1")
2.80
>>> readout_value("CS(=O)(=O)CCCOc1cc(-c2cc(=O)cc[nH]2)cc2c(Br)c(C(F)(F)P(=O)(O)O)sc12")
0.40
>>> readout_value("COc1ccc2c(c1)C(CC(C)NC(=O)c1ccc3sc(C(F)(F)P(=O)(O)O)c(Br)c3c1)C=N2 (stereo not drawn)")
3.64
>>> readout_value("CCCc1ccc(-c2ccc(O[C@H](Cc3ccccc3)C(=O)O)cc2)n1-c1ccc(Br)cc1")
3.04
>>> readout_value("NC(=O)c1cc(OCc2ccc(S(N)(=O)=O)nc2)c2sc(C(F)(F)P(=O)(O)O)c(Br)c2c1")
0.46
>>> readout_value("CC(C)(C)OC(=O)N[C@@H](Cc1ccc(NS(=O)(=O)O)cc1)c1nc(C(C)(C)C)cs1")
4.70
>>> readout_value("NC(=O)c1cc(OCc2ccc(C(F)(F)F)c(F)c2)c2sc(C(F)(F)P(=O)(O)O)c(Br)c2c1")
1.34
>>> readout_value("COc1c(OCCc2ccccc2)cc2c(c1C=O)CC(O)OC2=O (stereo not drawn)")
5.34
>>> readout_value("N#Cc1c(C(F)(F)P(=O)(O)O)sc2ccc(C(=O)NCc3ncn[nH]3)cc12")
3.34
>>> readout_value("COc1ccc(NC(=O)c2ccc3sc(C(F)(F)P(=O)(O)O)c(Br)c3c2)cc1")
3.40

====

Several publications report pIC50 on Tyrosine-protein phosphatase non-receptor type 1 (Homo sapiens); those values are gathered here.
pIC50: −log10 of the molar value.
measured.property: pIC50

>>> readout_value("CC(C)CCn1ccc(-c2ccc(O)c(N3CC(=O)NS3(=O)=O)c2F)n1")
"≥ 6.00"
>>> readout_value("CNc1nc(N)nc2nc(-c3c(Oc4ccccc4)cccc3C(F)(F)F)ccc12")
6.77
>>> readout_value("O=C1CN(c2c(O)ccc(-c3cc(N4CCC5(COC5)C4)n[nH]3)c2F)S(=O)(=O)N1")
"≥ 6.00"
>>> readout_value("O=C1CN(c2c(O)ccc(-c3cc(C(F)F)n[nH]3)c2F)S(=O)(=O)N1")
"≥ 6.00"
>>> readout_value("CN(C)C(=O)n1cc(-c2ccc(O)c(N3CC(=O)NS3(=O)=O)c2F)cn1")
"≥ 6.00"
>>> readout_value("N#CC1(CNC(=O)c2ccc3sc(C(F)(F)P(=O)(O)O)c(Br)c3c2)CC1")
5.47
>>> readout_value("CCc1csc([C@H](Cc2ccc(NS(=O)(=O)O)cc2)NC(=O)CCc2cccc(Cl)c2)n1")
4.82
>>> readout_value("Cn1cc(-c2ccc(O)c(N3CC(=O)NS3(=O)=O)c2F)nc1O")
"≥ 6.00"
